- testedTarget: HLA-DR DRB1*0901 (DR9) (Homo sapiens, UniProt P01903+P01911, A100R/A103E/D57H/D86V/F55Y/F60I/F76Y/I96F/K127E/L162R/M171V/P40D/Q125H/Q99R/R33Q/R42F/S133A/S66N/T210M/V115G/W38K/Y107V/Y59G/Y89S)
- testMethodNotes: biochemical
- Type: binding
- statedConditions: read-out: DRB1 *0901
IC50 by entry:
Dear colleague, please return just the value in µM, with no unit written.

[
  {
    "macromoleculeSequence": "QAISPRTLNSPAIF",
    "unitAbbrev": "µM",
    "IC50": 286
  }
]

Supply reported IC50 belonging to this sequence: VRTLQQLLMQTCTIV
0.496

Supply reported IC50 belonging to this sequence: KPAVYTKVVHYRICWI
3.68

Supply reported IC50 belonging to this sequence: RGGMVFELANSIYLP
0.033

Ref: patent US20060079453A1
